SUBJECT_OF_TEST: PD-1/PD-L1 (Homo sapiens, UniProt Q9NZQ7)
TEST_PROTOCOL: PD-1/PD-L1 biochemical protein-protein interaction assay (ALPHA)
Assay type: binding
CONDITIONS_USED: 0.3 nM His tagged PD-L1, 2.5 nM biotinylated Fc-PD-1, 60 minutes at 25° C., read-out: IC50 PD-L1-PD-1 Alpha IC50-mono PD-L1-fcP-D1
READOUT: IC50 (nM)

- COMPOUND_STRUCTURE_STRING: "COc1nc(-c2cccc(-c3cccc4c3CC[C@@H]4Oc3nc(OC)c(CN[C@@](C)(CO)C(=O)O)cc3Cl)c2Cl)ccc1CNC[C@@H]1CCC(=O)N1"
  SUBJECT_OF_TEST: "PD-1/PD-L1 (Homo sapiens, UniProt Q9NZQ7)"
  UNIT_ABBREVIATION: "nM"
  RECORDED_MEASUREMENT: 0.064

a: Cc1c(COc2cc(OCc3cncc(C#N)c3)c(CNC[C@@H](O)CC(=O)O)cc2Cl)cc(F)cc1-c1cccc(-c2ccc(OCCN3CC[C@@H](O)C3)cc2)c1C
b: COc1nc(-c2cccc(-c3cccc(-c4nc5cc(CNCCO)ccc5o4)c3Cl)c2Cl)ccc1CNCCO
Ask: // compare measured IC50 between a and b ; output the lower one Please respond with the label that marks your chosen entry.
Result: b
(b: 0.188 nM, a: 0.453 nM)

====

SUBJECT_OF_TEST: PD-1/PD-L1 interaction (Homo sapiens, UniProt Q9NZQ7)
Construct: expressed in transfected cells; host or cells: CHO cells (aAPC-PD-L1) co-cultured with Jurkat cells overexpressing PD-1 and an NFAT-luciferase reporter
TEST_PROTOCOL: PD-1/PD-L1 NFAT reporter co-culture assay
Assay type: cell-based
CONDITIONS_USED: Jurkat PD-1 NFAT-luciferase cells co-cultured with aAPC-PD-L1 CHO cells, 6 hrs at 37° C.; read-out: EC50 NFAT Luciferase
READOUT: EC50 (µM)

- COMPOUND_STRUCTURE_STRING: "COc1nc(OCc2cccc(-c3cccc(COc4nc(OC)c(CNC[C@@H](O)CC(=O)O)cc4C4CC4)c3C)c2C)c(C2CC2)cc1CNC[C@@H](O)CC(=O)O"
  SUBJECT_OF_TEST: "PD-1/PD-L1 interaction (Homo sapiens, UniProt Q9NZQ7)"
  UNIT_ABBREVIATION: "µM"
  EC50: 1.52
- COMPOUND_STRUCTURE_STRING: "Cc1c(COc2nc(OCc3cc(C#N)cc(C#N)c3)c(CNC[C@@H](O)CC(=O)O)cc2Br)cccc1-c1cccc(-c2ccc(OCCNC[C@@H](O)CC(=O)O)cc2)c1C"
  SUBJECT_OF_TEST: "PD-1/PD-L1 interaction (Homo sapiens, UniProt Q9NZQ7)"
  UNIT_ABBREVIATION: "µM"
  EC50: 0.095

A: COc1nc(OCc2cccc(-c3cccc(COc4nc(OC)c(CN5CCOC[C@H]5C(=O)O)cc4Cl)c3C)c2C)c(Cl)cc1CN1CCOC[C@H]1C(=O)O
B: Cc1c(COc2cc(OCc3cncc(C#N)c3)c(CNC[C@@H](O)CC(=O)O)cc2Cl)cccc1-c1cccc(-c2ccc(C3=NCCN3)c(OCCCC#N)c2)c1C
Ask: // compare measured EC50 between A and B ; output the lower one Please respond with the label that marks your chosen entry.
Result: B
(B: 0.193 µM, A: 11.6 µM)

====

SUBJECT_OF_TEST: PD-L1 (Homo sapiens, UniProt Q9NZQ7)
Construct: determine if they can specifically dimerize the extracellular domains of PD-L1
TEST_PROTOCOL: PD-L1/PD-L1 dimerization biochemical protein-protein interaction assay (ALPHA)
Format: binding
CONDITIONS_USED: compound-induced PD-L1 dimerization, head prints '1 nM' (0.5 nM His-tagged PD-L1 and 0.5 nM FLAG-tagged PD-L1), read-out: AC50 PDL1 Dimer Alpha 1 nM
READOUT: AC50 (nM)

A selection of reference data follows.
- COMPOUND: "COc1nc(-c2cccc(-c3cccc4c3CC[C@@H]4Oc3nc(OC)c(CN4CC5(CCC(=O)N5)C4)cc3Cl)c2Cl)ccc1CN1CC2(CCC(=O)N2)C1"
  SUBJECT_OF_TEST: "PD-L1 (Homo sapiens, UniProt Q9NZQ7)"
  AC50 / nM: 129
- COMPOUND: "Cc1c(COc2cc(OCc3cncc(C#N)c3)c(CN[C@@](C)(CO)C(=O)O)cc2Cl)cccc1-c1cccc(-c2ccc(CC3CCCN3)cc2)c1C (some centres unmarked)"
  SUBJECT_OF_TEST: "PD-L1 (Homo sapiens, UniProt Q9NZQ7)"
  AC50 / nM: 230

a: Cc1c(COc2nc(OCCc3cncnc3)c(CNC[C@@H](O)CC(=O)O)cc2Br)cccc1-c1cccc(COc2nc(OCCc3cncnc3)c(CNC[C@@H](O)CC(=O)O)cc2Br)c1C
b: Cc1c(COc2cc(OCc3cncc(C#N)c3)c(CNC[C@@H](O)CC(=O)O)cc2Cl)cccc1-c1cccc(OCc2cc(OCc3cncc(C#N)c3)c(CNC[C@@H](O)CC(=O)O)cc2Cl)c1C
c: COc1nc(-c2cccc(-c3cccc(COc4nc(OCc5cncc(C#N)c5)c(CN5CCCC[C@H]5C(=O)O)cc4Br)c3Cl)c2Cl)ccc1C1=NCCN1
Ask: Sort these compounds on AC50 so the largest reading comes first. Would you mind listing the labels in the order requested?
Result: a, b, c

====

SUBJECT_OF_TEST: PD-1/PD-L1 interaction (Homo sapiens, UniProt Q9NZQ7)
Construct: expressed in transfected cells; host or cells: CHO cells (aAPC-PD-L1) co-cultured with Jurkat cells overexpressing PD-1 and an NFAT-luciferase reporter
TEST_PROTOCOL: PD-1/PD-L1 NFAT reporter co-culture assay
Type: cell-based
CONDITIONS_USED: Jurkat PD-1 NFAT-luciferase cells co-cultured with aAPC-PD-L1 CHO cells, 6 hrs at 37° C.; read-out: EC50 NFAT Luciferase
READOUT: EC50 (µM)

I: Cc1c(COc2cc(OCc3cncc(C#N)c3)c(CNC[C@@H](O)CC(=O)O)cc2Cl)cccc1-c1cccc(-c2nc3ccc(CNC[C@@H](O)CC(=O)O)cc3o2)c1C
II: Cc1c(COc2ccc(CNC[C@@H](O)CC(=O)O)cc2C#N)cccc1-c1cccc(COc2ccc(CNC[C@@H](O)CC(=O)O)cc2C#N)c1C
Ask: Out of I and II , name the one with the higher EC50. Please respond with the label that marks your chosen entry.
Result: II

====

SUBJECT_OF_TEST: PD-1/PD-L1 interaction (Homo sapiens, UniProt Q9NZQ7)
Construct: expressed in transfected cells; host or cells: CHO cells (aAPC-PD-L1) co-cultured with Jurkat cells overexpressing PD-1 and an NFAT-luciferase reporter
TEST_PROTOCOL: PD-1/PD-L1 NFAT reporter co-culture assay
Assay type: cell-based
CONDITIONS_USED: Jurkat PD-1 NFAT-luciferase cells co-cultured with aAPC-PD-L1 CHO cells, 6 hrs at 37° C.; read-out: EC50 NFAT Luciferase
pEC50: −log10 of the molar value.
READOUT: pEC50

A selection of reference data follows.
- COMPOUND_STRUCTURE_STRING: "Cc1c(COc2cc(OCc3cncc(C#N)c3)c(CN[C@@](C)(CO)C(=O)O)cc2Cl)cccc1-c1c(F)ccc(-c2ccc(CN(C)C)cc2)c1Cl"
  RECORDED_MEASUREMENT: 5.99
- COMPOUND_STRUCTURE_STRING: "COc1nc(-c2cccc(-c3cccc4c3CC[C@@H]4Oc3nc(OCc4cncc(C#N)c4)c(CN[C@@](C)(CO)C(=O)O)cc3Cl)c2Cl)ccc1C1=NCCN1"
  RECORDED_MEASUREMENT: 6.95

I: Cc1c(COc2nc(OCc3cccc(C#N)c3)c(CNC[C@@H](O)CC(=O)O)cc2Cl)cccc1-c1cccc(COc2nc(OCc3cccc(C#N)c3)c(CNC[C@@H](O)CC(=O)O)cc2Cl)c1C
II: COc1nc(OCc2cccc(-c3cccc(COc4nc(OC)c(CN5CC[C@@H](O)C5)cc4Br)c3C)c2C)c(Br)cc1CN1CC[C@@H](O)C1
Ask: // compare measured pEC50 between I and II ; output the lower one Please respond with the label that marks your chosen entry.
Result: II

====

SUBJECT_OF_TEST: PD-1/PD-L1 interaction (Homo sapiens)
Construct: expressed in transfected cells; host or cells: CHO cells (aAPC-PD-L1) co-cultured with Jurkat cells overexpressing PD-1 and an NFAT-luciferase reporter
TEST_PROTOCOL: PD-1/PD-L1 NFAT reporter co-culture assay
Assay type: cell-based
CONDITIONS_USED: Jurkat PD-1 NFAT-luciferase cells co-cultured with aAPC-PD-L1 CHO cells, 6 hrs at 37° C.; read-out: EC50 NFAT Luciferase
READOUT: EC50 (nM)

A selection of reference data follows.
- COMPOUND_STRUCTURE_STRING: "Cc1c(COc2cc(OCc3cncc(C#N)c3)c(CN[C@@](C)(CO)C(=O)O)cc2Cl)cccc1-c1cccc(-c2ccc(OCCNC[C@@H]3CCC(=O)N3)cc2)c1C"
  EC50 / nM: 154
- COMPOUND_STRUCTURE_STRING: "C[C@@](CO)(NCc1cc(Cl)c(O[C@H]2CCc3c(-c4cccc(-c5ccc(OCCNCCO)cc5)c4Cl)cccc32)nc1OCc1cc(C#N)cc(C#N)c1)C(=O)O"
  EC50 / nM: 47
- COMPOUND_STRUCTURE_STRING: "N#Cc1cncc(COc2nc(OCc3cccc(-c4cccc(COc5ccc(CNC[C@@H](O)CC(=O)O)c(OCc6cncc(C#N)c6)n5)c4Cl)c3Cl)ccc2CNC[C@@H](O)CC(=O)O)c1"
  EC50 / nM: 408

a: Cc1c(COc2cc(OCc3cncc(C#N)c3)c(CNCCO)cc2Cl)cccc1-c1cccc(COc2ccc(CNCCO)cc2C(F)(F)F)c1C
b: COc1cc(-c2cccc(-c3cccc(COc4nc(OC)c(CN5CC6(C5)CN(C(C)=O)C6)cc4Br)c3Cl)c2Cl)ccc1CN1CC2(C1)CN(C(C)=O)C2
Ask: Out of a and b , name the one with the higher EC50. Please respond with the label that marks your chosen entry.
Result: a
(a: 927 nM, b: 544 nM)
